assay: Test for nanocluster formation (absence of precipitation); assay type: physicochemical; conditions: standard conditions for β-casein phosphopeptide nanoclusters modified to the smallest extent; absence of precipitation = nanocluster-like particles
Ends that are not written are not given here.
measurement_kind: outcome of test for nanocluster formation

αs1-casein 7P (f43-79): tryptic phosphopeptide of αs1-casein, item 8 (DIGSESTEDQAMEDIKQMEAESISSSEEIVPNSVEQK; also: 7 phosphorylations, sites not given here; UniProt P02662 58-94, looked up, fragment)	Nanoclusters were formed
αs1-casein 5P (f59-79): tryptic phosphopeptide of αs1-casein, item 8 (QMEAESISSSEEIVPNSVEQK; also: 5 phosphorylations, sites not given here; UniProt P02662 74-94, looked up, fragment)	Nanoclusters were formed
